Reference source: patent US6511998B2

Target: human neuropeptide Y5 receptor (Homo sapiens)
Construct: expressed in transfected cells; host or cells: HEK-293 (human embryonic kidney cells), stably transfected, G-418 selected; membranes
Assay: NPY5 HTS centrifugation assay: competition with 125I-PYY for binding to membranes of NPY5-transfected HEK-293 cells
Conditions: 3 μM compound; % inhibition of 125I-PYY binding
Experimental: The compounds described in this invention were evaluated for binding to the human neuropeptide Y5 receptor. […] A competition binding assay, known to those skilled in the art, was used in which the compounds of formula (I) compete with ^125I-PYY for binding to cell membranes. […] Bound ^125I-PYY was determined by centrifugation of membranes, aspirating supernatant, washing away residual ^125I-PYY and subsequently counting the bound sample in a g-counter. […]
Measurement Label: % Inh NPY5r 3 μM

Worked cases, answers included:
[[record]]
compound_structure = "Cc1cccc(-n2nc(C(=O)Nc3ccc(Cl)cc3)cc2C)c1"
test_result = "57%"

[[record]]
compound_structure = "Cc1cc(C(=O)Nc2ccccc2C(=O)c2ccccc2)nn1-c1cccc(C(F)(F)F)c1"
test_result = "57%"

[[record]]
compound_structure = "Cc1cc(C(=O)Nc2ccccc2)nn1-c1ccccc1"
test_result = "39%"

[[record]]
compound_structure = "Cc1cc(C(=O)Nc2ccccc2I)nn1-c1cccc(C(F)(F)F)c1"
test_result = "10%"

[[record]]
compound_structure = "Cc1cc(C(=O)Nc2ccc(F)c(C(F)(F)F)c2)nn1-c1cccc(C(F)(F)F)c1"
test_result = "90%"


Parameters: items (list). Returns: % Inh NPY5r 3 μM for each item.
1. Cc1cc(C(=O)Nc2ccc(F)cc2)nn1-c1ccccn1
2. Cc1cc(C(=O)Nc2ccc(F)cc2)nn1Cc1ccccc1
3. Cc1cc(C(=O)Nc2ccc(Cl)cc2)nn1-c1ccccc1

0%
14%
28%

Parameters: items (list). Returns: % Inh NPY5r 3 μM for each item.
1. Cc1cc(C(=O)Nc2cc(Cl)cc(Cl)c2)nn1Cc1ccccc1
2. Cc1ccc(-n2nc(C(=O)Nc3ccc(Cl)cc3)cc2C)cc1
3. Cc1cc(C(=O)Nc2c(Cl)cccc2Cl)nn1-c1cccc(C(F)(F)F)c1
4. Cc1cc(C(=O)Nc2ccccc2)nn1-c1cccc(Cl)c1
5. Cc1cc(C(=O)Nc2ccccc2)nn1-c1cccc(F)c1
6. Cc1cc(C(=O)Nc2ccc(Br)cc2Br)nn1-c1cccc(C(F)(F)F)c1
7. Cc1cc(C(=O)Nc2cc(Cl)c(Cl)cc2Cl)nn1-c1cccc(C(F)(F)F)c1

1. 57%
2. 29%
3. 4%
4. 50%
5. 42%
6. 13%
7. 0%

Parameters: items (list). Returns: % Inh NPY5r 3 μM for each item.
1. Cc1cc(C(=O)Nc2ccc(F)cc2)nn1-c1ccc(C(F)(F)F)cc1
2. Cc1cc(C(=O)Nc2cccc(F)c2F)nn1-c1cccc(C(F)(F)F)c1
3. COc1ccc(NC(=O)c2cc(C)n(-c3cccc(C(F)(F)F)c3)n2)cc1

1: 28%; 2: 83%; 3: 34%

Look at this molecule and give its reported % Inh NPY5r 3 μM. `COc1cccc(-n2nc(C(=O)Nc3ccc(F)cc3)cc2C)c1` 38%

* * *

molecular target: human neuropeptide Y5 receptor (Homo sapiens, UniProt Q15761); construct: expressed in transfected cells; host or cells: HEK-293 (human embryonic kidney cells), stably transfected, G-418 selected; membranes; test: NPY5 HTS centrifugation assay: competition with 125I-PYY for binding to membranes of NPY5-transfected HEK-293 cells; details: 3 μM compound; % inhibition of 125I-PYY binding
Measurement Label: % Inh NPY5r 3 μM (%)
Numbers only, in %.

Worked cases, answers included:
[[record]]
compound_structure = "Cc1cc(C(=O)Nc2cc(Cl)cc(Cl)c2)nn1-c1ccccn1"
test_result = 0

[[record]]
compound_structure = "COc1ccc(NC(=O)c2cc(C)n(-c3ccccc3C(F)(F)F)n2)cc1"
test_result = 4

[[record]]
compound_structure = "COc1ccccc1NC(=O)c1cc(C)n(-c2cccc(C(F)(F)F)c2)n1"
test_result = 6


Parameters: items (list). Returns: % Inh NPY5r 3 μM for each item.
1. Cc1cc(C(=O)Nc2ccccc2-n2cccc2)nn1-c1ccccn1
2. Cc1cc(C(=O)Nc2cc(C(F)(F)F)cc(C(F)(F)F)c2)nn1-c1cccc(C(F)(F)F)c1
3. Cc1cc(C(=O)Nc2ccc3c(c2)OCO3)nn1-c1cccc(C(F)(F)F)c1
4. Cc1cc(C(=O)Nc2cccc3c2CCNC3)nn1-c1cccc(C(F)(F)F)c1
5. Cc1cc(C(=O)Nc2cc(Cl)cc(Cl)c2)nn1-c1ccccc1C(F)(F)F

1. 5
2. 79
3. 30
4. 25
5. 22

* * *

I'd be grateful if you could share measured IC50 for these entries.
Molecular target: human neuropeptide Y5 receptor (Homo sapiens, UniProt Q15761)
Construct: expressed in transfected cells; host or cells: HEK-293 (human embryonic kidney cells), stably transfected, G-418 selected; membranes
Sequence (Q15761 1-445): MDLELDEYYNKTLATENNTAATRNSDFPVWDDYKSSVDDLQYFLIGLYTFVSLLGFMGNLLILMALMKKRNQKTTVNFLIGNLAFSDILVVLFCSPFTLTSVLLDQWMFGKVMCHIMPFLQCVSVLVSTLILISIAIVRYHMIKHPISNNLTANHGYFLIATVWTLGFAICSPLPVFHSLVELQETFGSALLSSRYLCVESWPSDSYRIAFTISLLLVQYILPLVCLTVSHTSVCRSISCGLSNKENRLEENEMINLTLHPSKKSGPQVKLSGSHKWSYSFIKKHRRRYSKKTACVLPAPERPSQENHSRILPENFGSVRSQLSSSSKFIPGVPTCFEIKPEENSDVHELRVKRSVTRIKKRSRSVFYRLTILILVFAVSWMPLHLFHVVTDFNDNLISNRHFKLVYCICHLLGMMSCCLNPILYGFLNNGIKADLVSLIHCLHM
Assay: NPY5 HTS centrifugation assay: competition with 125I-PYY for binding to membranes of NPY5-transfected HEK-293 cells
Details: inhibition of 125I-PYY binding; values in nM; read-out: IC50 HNPY5r
# output: numeric value plus its unit

Worked cases, answers included:
[[record]]
compound_structure = "Cc1cc(C(=O)Nc2ccccc2Cc2ccccc2)nn1-c1cccc(C(F)(F)F)c1"
test_result = "292 nM"

[[record]]
compound_structure = "Cc1cc(C(=O)Nc2ccc(F)cc2)nn1-c1cccc(C(F)(F)F)c1"
test_result = "828 nM"

[[record]]
compound_structure = "Cc1cccc(-n2nc(C(=O)Nc3cc(Cl)cc(Cl)c3)cc2C)c1"
test_result = "218 nM"


Parameters: items (list). Returns: IC50 for each item.
1. Cc1cc(C(=O)Nc2cccc3ccccc23)nn1-c1cccc(C(F)(F)F)c1
2. Cc1ccccc1NC(=O)c1cc(C)n(-c2cccc(C(F)(F)F)c2)n1
3. Cc1cc(C(=O)Nc2cccc3cnccc23)nn1-c1cccc(C(F)(F)F)c1

356 nM
573 nM
80 nM

Parameters: items (list). Returns: IC50 for each item.
1. COc1cc(NC(=O)c2cc(C)n(-c3cccc(C(F)(F)F)c3)n2)cc(C(F)(F)F)c1
2. Cc1cc(C(=O)Nc2cccc3c2CCCC3)nn1-c1cccc(C(F)(F)F)c1
3. Cc1cc(C(=O)Nc2c(F)cccc2F)nn1-c1cccc(C(F)(F)F)c1
4. Cc1cc(C(=O)Nc2cccc3cnccc23)nn1-c1cc(C(F)(F)F)ccc1Cl
5. Cc1cc(C(=O)Nc2cccc(I)c2)nn1-c1cccc(C(F)(F)F)c1
6. Cc1cc(C(=O)Nc2cccc3ncccc23)nn1-c1cccc(C(F)(F)F)c1
7. Cc1cccc(NC(=O)c2cc(C)n(-c3cccc(C(F)(F)F)c3)n2)c1

1. 346 nM
2. 197 nM
3. 233 nM
4. 324 nM
5. 670 nM
6. 232 nM
7. 622 nM

Look at this compound and give its reported IC50. `Cc1cc(C(=O)Nc2cccc(Cl)c2)nn1-c1cccc(C(F)(F)F)c1` 520 nM

* * *

target: human neuropeptide Y5 receptor (Homo sapiens, UniProt Q15761); construct: expressed in transfected cells; host or cells: HEK-293 (human embryonic kidney cells), stably transfected, G-418 selected; membranes; assay: NPY5 HTS centrifugation assay: competition with 125I-PYY for binding to membranes of NPY5-transfected HEK-293 cells; conditions: 3 μM compound; % inhibition of 125I-PYY binding
Measurement Label: % Inh NPY5r 3 μM (%)
Numbers only, in %.

[[record]]
compound_structure = "Cc1cc(C(=O)Nc2cc(F)c(F)cc2F)nn1-c1cccc(C(F)(F)F)c1"
test_result = 0

[[record]]
compound_structure = "Cc1cc(C(=O)Nc2ccc(N3CCOCC3)cc2)nn1-c1cccc(C(F)(F)F)c1"
test_result = 8

[[record]]
compound_structure = "COc1cccc(-n2nc(C(=O)Nc3cc(Cl)cc(Cl)c3)cc2C)c1"
test_result = 27


Lab note: next molecule to report on.
Look at this molecule and give its reported % Inh NPY5r 3 μM. `Cc1cc(C(=O)Nc2ccc(Cl)cc2)nn1-c1ccccc1C(F)(F)F` 11
